measured-on: AKT1 (Homo sapiens, UniProt P31749)
Sequence (P31749 whole entry): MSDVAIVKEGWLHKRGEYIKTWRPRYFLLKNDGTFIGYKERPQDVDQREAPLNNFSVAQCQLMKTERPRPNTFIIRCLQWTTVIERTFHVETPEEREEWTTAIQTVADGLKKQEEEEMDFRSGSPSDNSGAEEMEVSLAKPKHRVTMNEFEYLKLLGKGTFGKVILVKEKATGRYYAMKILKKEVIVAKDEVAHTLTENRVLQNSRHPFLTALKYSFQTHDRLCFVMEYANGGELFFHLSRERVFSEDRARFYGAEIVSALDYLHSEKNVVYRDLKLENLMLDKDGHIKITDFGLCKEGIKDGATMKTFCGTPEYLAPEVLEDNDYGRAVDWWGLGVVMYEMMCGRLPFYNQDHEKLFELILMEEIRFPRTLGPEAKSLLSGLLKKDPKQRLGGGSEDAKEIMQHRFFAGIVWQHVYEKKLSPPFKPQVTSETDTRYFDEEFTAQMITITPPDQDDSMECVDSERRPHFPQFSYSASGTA
test-protocol: AKT Kinase Assay (IMAP fluorescent polarisation) vs AKT1
assay-context: activated AKT1, FAM Crosstide substrate
Counter-ions that a name gives are not always drawn.
Provide the reported IC50 of each item.

**Query** Returns the measured IC50 for the input compound. Input: NC1(c2ccc(-c3oc4nc(NCCO)nc(OCCF)c4c3-c3ccccc3)cc2)CCC1 [Example 111]
**Result** ≤ 100 nM

**Query** Item under review: COc1nc(NCCO)nc2oc(-c3ccc(C4(N)CCC4)cc3)c(-c3ccccc3)c12 [Example 38] . Reported IC50?
**Result** ≤ 100 nM

**Query** Any idea what its IC50 is? The compound is COc1nc(N)nc2oc(-c3ccc(C4(N)CCC4)cc3)c(-c3ccccc3)c12 [Example 31]
**Result** ≤ 100 nM

**Query** Look up IC50 for this compound: CSc1nc2oc(-c3ccc(C4(N)CCC4)cc3)c(-c3ccccc3)c2c(=O)n1CC#N [Example 96]
**Result** ≤ 100 nM

**Query** So what's the measured IC50 for this one? NC1(c2ccc(-c3oc4ncc(-c5cn[nH]c5)nc4c3-c3ccccc3)cc2)CCC1 [Example 135]
**Result** 100 to 1000 nM

**Query** Fill in the blank: the reported IC50 of NC1(c2ccc(-c3oc4nc[nH]c(=O)c4c3-c3ccccc3)cc2)CCC1 [Example 12] is ____.
**Result** 1000 to 10000 nM

**Query** Please report the recorded IC50 for COc1nc(N2CCOCC2)nc2oc(-c3ccc(C4(N)CCC4)cc3)c(-c3ccccc3)c12 [Example 13] .
**Result** 1000 to 10000 nM

**Query** Which measured IC50 value corresponds to NC1(c2ccc(-c3oc4ncn(CC5CC5)c(=O)c4c3-c3ccccc3)cc2)CCC1 [Example 100, HCl] ?
**Result** 1000 to 10000 nM

**Query** I would be grateful if you could share the reported IC50 for CNC(=O)c1cn(C)c(=O)c2c(-c3ccccc3)c(-c3ccc(C4(N)CCC4)cc3)oc12 [Example 119] .
**Result** 100 to 1000 nM

**Query** Endpoint output: IC50 of COCCNc1nc2oc(-c3ccc(C4(N)CCC4)cc3)c(-c3ccccc3)c2c(=O)n1C [Example 83] . Value?
**Result** 100 to 1000 nM

**Query** So what does the record say about IC50 for Cn1cnc2oc(-c3ccc(C4(N)CCC4)cc3)c(-c3ccccc3)c2c1=O [Example 66] ?
**Result** 100 to 1000 nM

**Query** So what does the record say about IC50 for NC1(c2ccc(-c3oc4nc(NCCO)ncc4c3-c3ccccc3)cc2)CCC1 [Example 51] ?
**Result** 100 to 1000 nM

**Query** For the compound shown here, NC1(c2ccc(-c3oc4cc[nH]c(=O)c4c3-c3ccccc3)cc2)CCC1 [Example 18] , give the reported IC50.
**Result** 100 to 1000 nM

**Query** Returns the measured IC50 for the input compound. Input: CNC(=O)CNc1nc2oc(-c3ccc(C4(N)CCC4)cc3)c(-c3ccccc3)c2c(=O)n1C [Example 60, hydrochloride]
**Result** 1000 to 10000 nM

**Query** Fill in: IC50 of CNc1nc(OC)c2c(-c3ccccc3)c(-c3ccc(C4(N)CCC4)cc3)oc2n1 [Example 32] is ___
**Result** ≤ 100 nM

**Query** Which measured IC50 value corresponds to NC1(c2ccc(-c3oc4ncn(CCF)c(=O)c4c3-c3ccccc3)cc2)CCC1 [Example 103, HCl] ?
**Result** 100 to 1000 nM

**Query** So what's the measured IC50 for this one? COc1nc(N2CC(CN)C2)nc2oc(-c3ccc(C4(N)CCC4)cc3)c(-c3ccccc3)c12 [Example 27]
**Result** 100 to 1000 nM

----------
Record form. Attribute: IC50. Fill in for each entry.
measured-on: AKT1 (Homo sapiens)
Construct: purchased SignalChem
test-protocol: AKT Kinase Assay (IMAP fluorescent polarisation) vs AKT1
Type: biochemical
assay-context: activated AKT1, FAM Crosstide substrate
Where a name gives a salt, the structure may show the parent alone.

**Query** What does the record list as IC50 for COc1ncc(Br)c2oc(-c3ccc(C4(N)CCC4)cc3)c(-c3ccccc3)c12 ?
**Result** 0.1 to 1 µM

**Query** Which IC50 is listed for COc1nc(N2CCNCC2)nc2oc(-c3ccc(C4(N)CCC4)cc3)c(-c3ccccc3)c12 ?
**Result** 0.1 to 1 µM

**Query** Given the compound N#Cc1ccc2c(-c3ccccc3)c(-c3ccc(C4(N)CCC4)cc3)oc2c1 , what is its reported IC50?
**Result** 1 to 10 µM

**Query** Need IC50 of NC(=O)c1ccc2oc(-c3ccc(C4(N)CCC4)cc3)c(-c3ccccc3)c2c1 , thanks.
**Result** 0.1 to 1 µM

**Query** IC50 for NC1(c2ccc(-c3oc4nc(OCCO)ncc4c3-c3ccccc3)cc2)CCC1 ?
**Result** ≤ 0.1 µM

**Query** Item CNc1nc(SC)nc2oc(-c3ccc(C4(N)CCC4)cc3)c(-c3ccccc3)c12 [Example 68, HCl] has what recorded IC50?
**Result** 0.1 to 1 µM

----------
measured-on: AKT2 (Homo sapiens, UniProt P31751)
Sequence (P31751 whole entry): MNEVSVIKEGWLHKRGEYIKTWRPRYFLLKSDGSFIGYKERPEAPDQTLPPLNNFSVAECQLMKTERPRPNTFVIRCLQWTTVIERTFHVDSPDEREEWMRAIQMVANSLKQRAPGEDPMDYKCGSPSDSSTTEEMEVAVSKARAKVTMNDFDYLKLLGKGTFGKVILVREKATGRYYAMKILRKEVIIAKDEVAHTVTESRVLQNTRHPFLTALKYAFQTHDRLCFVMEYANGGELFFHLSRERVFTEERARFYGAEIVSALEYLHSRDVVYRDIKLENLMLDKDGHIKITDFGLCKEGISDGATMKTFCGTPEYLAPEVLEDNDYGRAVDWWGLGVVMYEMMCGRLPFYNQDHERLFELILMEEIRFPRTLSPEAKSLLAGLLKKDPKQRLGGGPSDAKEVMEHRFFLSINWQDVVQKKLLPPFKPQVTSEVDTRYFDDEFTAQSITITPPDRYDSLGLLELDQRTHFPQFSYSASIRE
test-protocol: AKT Kinase Assay (IMAP fluorescent polarisation) vs AKT2
assay-context: activated AKT2, FAM Crosstide substrate
Structures can show the parent of a compound that is named as a salt.
Provide the recorded IC50 for the entries that follow.

**Query** If you can, please state the reported IC50 value of COCCn1c(SC)nc2oc(-c3ccc(C4(N)CCC4)cc3)c(-c3ccccc3)c2c1=O [Example 67, HCl] .
**Result** ≤ 100 nM

**Query** What value of measured IC50 is listed for COc1nc(N2CCNCC2)nc2oc(-c3ccc(C4(N)CCC4)cc3)c(-c3ccccc3)c12 ?
**Result** 100 to 1000 nM

**Query** Item COc1nc(N2CC[C@H](O)C2)nc2oc(-c3ccc(C4(N)CCC4)cc3)c(-c3ccccc3)c12 has what recorded IC50?
**Result** 100 to 1000 nM

**Query** Quick one: IC50 for COc1nc(N(C)C)nc2oc(-c3ccc(C4(N)CCC4)cc3)c(-c3ccccc3)c12 ?
**Result** 1000 to 10000 nM

**Query** Given the entry NC1(c2ccc(-c3oc4ccnc(-c5cn[nH]c5)c4c3-c3ccccc3)cc2)CCC1 , report its measured IC50.
**Result** 1000 to 10000 nM

**Query** Can you share its IC50? I mean this compound: NC1(c2ccc(-c3oc4c(=O)n(CCCO)ccc4c3-c3ccccc3)cc2)CCC1
**Result** 100 to 1000 nM

**Query** Which IC50 value is on record for Cn1c(N2CC[C@@H](O)C2)nc2oc(-c3ccc(C4(N)CCC4)cc3)c(-c3ccccc3)c2c1=O ?
**Result** ≤ 100 nM

**Query** Which IC50 is reported for this compound? CCOc1nc(N2CCNCC2)nc2oc(-c3ccc(C4(N)CCC4)cc3)c(-c3ccccc3)c12 [Example 46, HCl]
**Result** 100 to 1000 nM

----------
measured-on: UniProt:Q9Y243
Sequence (Q9Y243 whole entry): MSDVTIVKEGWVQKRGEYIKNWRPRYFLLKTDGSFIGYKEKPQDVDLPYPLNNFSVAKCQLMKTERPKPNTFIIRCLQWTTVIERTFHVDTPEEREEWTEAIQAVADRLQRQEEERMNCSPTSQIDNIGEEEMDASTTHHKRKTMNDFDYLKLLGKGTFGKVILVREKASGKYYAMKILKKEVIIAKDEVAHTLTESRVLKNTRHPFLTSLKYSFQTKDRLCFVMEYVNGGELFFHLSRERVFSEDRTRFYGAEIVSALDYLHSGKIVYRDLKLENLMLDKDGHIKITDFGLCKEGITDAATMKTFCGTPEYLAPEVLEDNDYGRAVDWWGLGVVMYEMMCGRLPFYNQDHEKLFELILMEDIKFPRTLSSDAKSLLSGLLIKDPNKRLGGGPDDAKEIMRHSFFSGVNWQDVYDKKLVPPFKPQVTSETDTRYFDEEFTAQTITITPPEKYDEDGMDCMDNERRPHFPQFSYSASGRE
test-protocol: AKT Kinase Assay (IMAP fluorescent polarisation) vs AKT3
assay-context: activated AKT3, FAM Crosstide substrate
Protocol: Testing of the compounds was performed using an AKT Kinase Assay: Activated AKT isoforms 1, 2 and 3 were assayed utilising a 5′ FAM Crosstide (Seq. GRPRTSSFAEG-OH). The extent of kinase phosphorylation was determined by fluorescent polarisation using IMAP progressive binding reagent, which introduces binding beads which allow the reagent to specifically bind to phosphate residues via covalent co-ordination complex bonds. […]
pIC50: −log10 of the molar value. Where a name gives a salt, the structure may show the parent alone.
I'd be grateful if you could share measured pIC50 for these entries.

**Query** Please tell me: pIC50 of COc1nc(NCCN)nc2oc(-c3ccc(C4(N)CCC4)cc3)c(-c3ccccc3)c12 , system UniProt:Q9Y243?
**Result** 5.00 to 6.00

**Query** Value wanted: pIC50 (UniProt:Q9Y243) of entry CNC(=O)c1cn(C)c(=O)c2c(-c3ccccc3)c(-c3ccc(C4(N)CCC4)cc3)oc12
**Result** < 5.00

**Query** API: value(readout= pIC50, system= UniProt:Q9Y243, query= Cc1nc2oc(-c3ccc(C4(N)CCC4)cc3)c(-c3ccccc3)c2c(=O)n1CC(F)(F)F )
**Result** 5.00 to 6.00

**Query** Lab note: need pIC50 with UniProt:Q9Y243 for entry NC1CCN(c2ncc3c(-c4ccccc4)c(-c4ccc(C5(N)CCC5)cc4)oc3n2)CC1 , please look it up.
**Result** < 5.00

**Query** Lab request: please report pIC50 under test system UniProt:Q9Y243 for COc1nc(NC(C)=O)nc2oc(-c3ccc(C4(N)CCC4)cc3)c(-c3ccccc3)c12
**Result** 6.00 to 7.00

**Query** Hi! What's the reported pIC50 for COc1nc(N2CCOCC2)nc2oc(-c3ccc(C4(N)CCC4)cc3)c(-c3ccccc3)c12 on UniProt:Q9Y243?
**Result** 5.00 to 6.00

**Query** Recorded pIC50 for CSc1ncc2c(-c3ccccc3)c(-c3ccc(C4(N)CCC4)cc3)oc2n1 with UniProt:Q9Y243, please?
**Result** < 5.00

**Query** Query pIC50 on UniProt:Q9Y243 for COCCNc1nc2oc(-c3ccc(C4(N)CCC4)cc3)c(-c3ccccc3)c2c(=O)n1C
**Result** 5.00 to 6.00

**Query** Return pIC50 measured with UniProt:Q9Y243 given this compound: CNc1nc2oc(-c3ccc(C4(N)CCC4)cc3)c(-c3ccccc3)c2c(=O)n1CCOC [Example 69, HCl]
**Result** < 5.00

**Query** Lab note: need pIC50 with UniProt:Q9Y243 for entry C[C@@H](O)CNc1nc2oc(-c3ccc(C4(N)CCC4)cc3)c(-c3ccccc3)c2c(=O)n1C , please look it up.
**Result** 5.00 to 6.00

**Query** What value of pIC50 on UniProt:Q9Y243 does Cc1nc2oc(-c3ccc(C4(N)CCC4)cc3)c(-c3ccccc3)c2c(=O)n1C have?
**Result** 5.00 to 6.00

**Query** // lookup pIC50 | system=UniProt:Q9Y243 | key= NC1(c2ccc(-c3oc4ncc(-c5cccnc5)nc4c3-c3ccccc3)cc2)CCC1
**Result** < 5.00

**Query** Record lookup: for UniProt:Q9Y243, what pIC50 belongs to COc1nc(N2CCN(C(C)=O)CC2)nc2oc(-c3ccc(C4(N)CCC4)cc3)c(-c3ccccc3)c12 ?
**Result** 5.00 to 6.00

**Query** Reported pIC50 for UniProt:Q9Y243, given NC1(c2ccc(-c3oc4c(=O)n(CCF)ccc4c3-c3ccccc3)cc2)CCC1 ?
**Result** < 5.00

Numbers sourced from patent US20120309739A1.
